test system: MDA-MB-231 breast; assay: NCI-60 one-dose screen, 48 h; conditions: 10 µM unless noted
This is part of a sample that, as a whole, favours compounds with a hit. Of some 83,000 tested, about 20% had one in any assay. Active and inactive are the calls of the source. Rule for the calls: active = growth percent below 10; inactive = the rest.
Classes used: 1 for active, -1 for inactive

compound	category
Nc1ccc(-c2csc(-n3[nH]c(=O)ccc3=O)n2)cc1	-1
COc1ccc(Nc2ncccc2/C=C/C(=O)c2cc(OC)c(OC)c(OC)c2)cc1	-1
O=C(CCCCCCN1CC(=O)N2[C@H](c3ccc(Cl)cc3)c3[nH]c4ccccc4c3C[C@@H]2C1=O)NO	-1
COC(=O)C(Cc1ccccc1)NC(=O)c1ccc(NC(=O)c2[nH]c(C)c(Cl)c2Cl)c(OC(C)C)c1 (centres undefined)	-1
COc1ccc(C(=O)N2c3ccccc3Sc3ccccc32)c(C(F)(F)F)c1	-1
O=C1/C(=C/c2ccc(F)cc2)CN(C(=O)C(Cl)Cl)C/C1=C\c1ccc(F)cc1	1
COC(=O)CC[C@@H]1O[C@@H](c2ccc(F)cc2)[C@@H](O)[C@H]1O	-1
CN(C)S(=O)(=O)Oc1ccc(-c2sc3cc(OS(=O)(=O)N(C)C)ccc3c2C(=O)c2ccc(OCCN3CCCCC3)cc2)cc1	-1
O=C(Nc1ncccc1OCc1ccccc1)NC1CCCCCC1	-1

* * *

test system: DU-145 prostate; assay: NCI-60 one-dose screen, 48 h (100 = growth as untreated, 0 = no growth, -100 = all killed); settings: 10 µM unless noted
This is part of a sample that, as a whole, favours compounds with a hit. Of some 83,000 tested, about 20% had one in any assay.
growth strictly less than 90% = rule met. Otherwise rule not met.

compound	category
COc1ccc(/C=C/C(c2cc(OC)c(OC)c(OC)c2)n2ccnc2)cc1O (stereo not drawn)	rule met
O=C(CN1CCN(c2cc3c(cc2F)c(=O)c(C(=O)O)cn3C2CC2)CC1)N/N=C/c1ccco1	rule not met
S=c1[nH]c(=S)c2c(-c3ccccc3)c(-c3ccccc3)oc2[nH]1	rule not met
CCOC(=O)C1=C(C)/C(=C\c2[nH]c(C)c(C(=O)OCC)c2C)N=C1C	rule not met
c1nc2ccc(-c3cc4ccc5[nH]ncc5c4c4c3CCCC4)cc2[nH]1	rule met
CN(C)CCCNC(=O)c1cncnc1Nc1ccc(OCc2cccc(F)c2)c(Cl)c1	rule met
CN1CCN(Cc2ccc(NC(=O)c3cncc(C#Cc4cnc5ccc(Cl)nn45)c3)cc2C(F)(F)F)CC1	rule met
CSC(SC)=C(C#N)c1nc2ccccc2s1	rule met
COc1ccc(Cn2cc3c(c2-c2ccccc2)CCc2cnoc2-3)cc1	rule met
CN(C)CCCC1(c2ccc(F)cc2)OCc2cc(-c3ccc4cc[nH]c4c3)ccc21 (stereo not drawn)	rule met
O=C(Cc1cccc(OC(F)(F)F)c1)Nc1ccc(CCCCc2nnc(NC(=O)Cc3ccccn3)s2)nn1	rule met
COc1ccc(CNc2c3ccccc3nc3ccccc23)c(OC)c1	rule met
CCOC(=O)c1cc(C(=O)c2cc(OC)c(OC)c(OC)c2)n2ccccc12	rule met
CCOC(=O)c1cnc2c(N=Nc3ccc(OC)cc3)c(N)nn2c1N	rule not met
O=C(CCCCCCN1CC(=O)N2[C@H](c3ccc(Cl)cc3)c3[nH]c4ccccc4c3C[C@@H]2C1=O)NO	rule met
O=C(Cc1ccccc1)Nc1cccc(N=Cc2ccccc2O)c1	rule not met
CCCCCCCCCCCCCCCCCCOc1ccccc1CC(=O)NCC[N+]1(C)CCCCC1	rule met
COc1ccc(-c2n[nH]c(=O)c3nc(NC(=S)Nc4ccc(Oc5ccccc5)cc4)sc23)cc1	rule not met
O=C1c2cccc3cccc(c23)C(=O)N1C/C=C/c1ccc2c3c(cccc13)C(=O)N(CCO)C2=O	rule met
COC(=O)c1ccc(NC(=O)Nc2ccc(C(=O)OC)cc2)cc1	rule not met
C=C1C(=O)O[C@H]2[C@H]1CC/C(COC(=O)CSCSCC(=O)OC/C1=C/CC[C@@]3(C)O[C@H]3[C@H]3OC(=O)C(=C)[C@@H]3CC1)=C\CC[C@@]1(C)O[C@@H]21	rule met
CCN(CC)CCN1C(=O)c2c(c(C)c3c(oc4ccc(O)cc43)c2C)C1=O	rule met
O=C(NNc1cnccn1)c1nc2cc(F)ccc2n2cccc12	rule met
O=C(c1c[nH]c2ccccc12)c1n[nH]c(=S)n1-c1cccc(Br)c1	rule not met
COc1cccc(NCc2nnc(Nc3ccc(Cl)cc3)c3ccccc23)c1	rule met
CCO/C=N/C1=C(C#N)C(c2ccc(F)cc2)c2sc3c(F)cccc3c2O1 (stereo not drawn)	rule met
CC1=C(CCC(C)NCc2ccc(OCCCN3CCCCC3)cc2)C(C)(C)CCC1 (stereo not drawn)	rule met
Cc1cccc2c1C[C@@]1(C2=O)C(c2ccc(C(C)(C)C)cc2)=NOS1=O (stereo partly drawn)	rule not met
CCN1C(=O)N(CC)C2Nn3c(s/c(=C\c4ccccc4Br)c3=O)=NC21 (stereo not drawn)	rule met
COc1ccc(CCN(CC(=O)N(CC(N)=O)C2CCC[C@@H]2OCc2ccccc2)C(=O)CN(C(=O)CN(CCc2ccc(Cl)cc2)C(=O)CN(C(=O)CN(C)Cc2ccccc2F)[C@H](C)C2CCCCC2)[C@H](C)C2CCCCC2)cc1OC (stereo partly drawn)	rule met
O=C(CCl)NNc1nccc(Nc2ccc(S(=O)(=O)Nc3ccncc3)cc2)n1	rule met
COc1ccc(CCN2C(=O)/C(=C/c3ccc(C4Oc5ccccc5C5CC(c6ccccc6)=NN54)cc3)SC2=S)cc1 (stereo not drawn)	rule not met
Nc1ccc(-c2csc(-n3[nH]c(=O)ccc3=O)n2)cc1	rule not met
O=C(Nc1ncc(Cc2ccccc2)s1)c1ccc2c(c1)OCCCO2	rule met
O=C(/C=C/C12c3ccccc3C(c3ccccc31)C1C(=O)NC(=O)C12)c1ccc(Br)cc1 (stereo not drawn)	rule met
